Biological target: Cyclin-dependent kinase 2/cyclin E1 (Homo sapiens)
Assay: Concentration required for inhibition of cyclin dependant kinase 2-cyclin E was measured by scintillation proximity assay
Format: protein-complex assay
Assign a class from recorded IC50; defined classes: lower level = under 100 nM, middle level = from 100 nM up to 1000 nM, upper level = 1000 nM and over

As a guide, the following entries are already answered.
[[record]]
mol = "O=C(Cc1c[nH]c2ccccc12)Nc1ncc(C2CCC2)s1"
group = "lower level"

[[record]]
mol = "CSc1cnc(NC(=O)Cc2ccccc2)s1"
group = "middle level"

[[record]]
mol = "O=C(Nc1ccc2ncccc2c1)Nc1ncc(C2CCC2)s1"
group = "middle level"

[[record]]
mol = "O=C(Cc1cccc2cnccc12)Nc1ncc(C2CCC2)s1"
group = "lower level"

[[record]]
mol = "O=C(Nc1ncc(C2CCC2)s1)Nc1cccc2nn[nH]c12"
group = "middle level"

[[record]]
mol = "O=C(Nc1ncc(C2CCC2)s1)Nc1cccc2ccncc12"
group = "lower level"


Here is the next item to consider.
Class? Entry: `CCCCCc1cnc(NC(=O)Cc2ccccc2)s1`
upper level

---

Test: Ratio of inhibition of cyclin dependant kinase 2-cyclin E to that of cyclin-dependent kinase 5
Documented Ratio across a set of compounds
# respond with the number and nothing more

[[record]]
mol = "O=C(Cc1ccccc1)Nc1ncc(C2=CCCC2)s1"
propertyname = "Ratio"
quantitativeresult = 1

[[record]]
mol = "O=C(Cc1ccccc1)Nc1ncc(C2CCCC2)s1"
propertyname = "Ratio"
quantitativeresult = 2.4

[[record]]
mol = "CC(C)c1cnc(NC(=O)Nc2ccccc2)s1"
propertyname = "Ratio"
quantitativeresult = 2.6

[[record]]
mol = "O=C(Nc1ncc(C2CCC2)s1)Nc1cccc2cnccc12"
propertyname = "Ratio"
quantitativeresult = 12

[[record]]
mol = "O=C(Cc1ccc2[nH]cnc2c1)Nc1ncc(C2CCC2)s1"
propertyname = "Ratio"
quantitativeresult = 4.7

[[record]]
mol = "CCc1cnc(NC(=O)Cc2ccccc2)s1"
propertyname = "Ratio"
quantitativeresult = 0.7


Indicate the recorded Ratio value for this compound: `O=C(Nc1ncc(C2CCC2)s1)Nc1cccc2[nH]nnc12`
2.6

Indicate the recorded Ratio value for this compound: `O=C(Nc1ncc(C2CCC2)s1)Nc1cccc2c[nH]nc12`
3.4

---

Target: Cyclin-dependent kinase 2/cyclin E1 (Homo sapiens)
Test: Concentration required for inhibition of cyclin dependant kinase 2-cyclin E was measured by scintillation proximity assay
Type: protein-complex assay
propertyName: pIC50
Note: pIC50 values are expressed as the negative base-10 logarithm of concentration in M.

[[record]]
mol = "O=C(Nc1ncc(C2CCC2)s1)Nc1cccc2ncccc12"
propertyname = "pIC50"
quantitativeresult = 7.37


Indicate the recorded pIC50 value for this compound: `O=C(Nc1ccccc1)Nc1ncc(C2CCC2)s1`
6.54

Indicate the recorded pIC50 value for this compound: `CC(C)C(=O)Nc1ncc(C(C)C)s1`
6.50

Indicate the recorded pIC50 value for this compound: `O=C(Nc1ncc(C2CCC2)s1)Nc1cccc2cnccc12`
7.02

Indicate the recorded pIC50 value for this compound: `Cc1nc2ccc(CC(=O)Nc3ncc(C4CCC4)s3)cc2s1`
7.80

Indicate the recorded pIC50 value for this compound: `O=C(Nc1ncc(C2CCC2)s1)Nc1cccc2c[nH]nc12`
6.19

---

Assay: Ratio of inhibition of cyclin dependant kinase 2-cyclin E to that of cyclin-dependent kinase 5
Please mark Condition met if the recorded Ratio is equal to or greater than 1, and Condition not met if it falls below.

[[record]]
mol = "O=C(Cn1ccc2ccccc21)Nc1ncc(C2CCC2)s1"
group = "Condition met"

[[record]]
mol = "O=C(Nc1ccc2ncccc2c1)Nc1ncc(C2CCC2)s1"
group = "Condition met"

[[record]]
mol = "O=C(Nc1ncc(C2CCC2)s1)Nc1cccc2ncccc12"
group = "Condition met"

[[record]]
mol = "CCCCCc1cnc(NC(=O)Cc2ccccc2)s1"
group = "Condition met"

[[record]]
mol = "CC(C)c1cnc(NC(=O)c2ccccc2)s1"
group = "Condition not met"

[[record]]
mol = "O=C(Cc1ccccc1)Nc1ncc(C2CCCCC2)s1"
group = "Condition met"

[[record]]
mol = "CN(C)c1cnc(NC(=O)Cc2ccccc2)s1"
group = "Condition met"

[[record]]
mol = "CC(=O)c1cnc(NC(=O)Cc2ccccc2)s1"
group = "Condition not met"


Is it the case that `O=C(Nc1ncc(C2CCC2)s1)Nc1cccc2ccncc12` has Ratio reaching or exceeding 1?
Condition met

Is it the case that `O=C(Cc1ccccc1)Nc1ncc(C2CCC2)s1` has Ratio reaching or exceeding 1?
Condition met

Is it the case that `O=C(Cc1ccccc1)Nc1ncc(Br)s1` has Ratio reaching or exceeding 1?
Condition not met

Is it the case that `CC(C)c1cnc(NC(=O)C(=O)c2ccccc2)s1` has Ratio reaching or exceeding 1?
Condition met

---

Documented Ratio across a set of compounds
Experiment: Ratio of inhibition of cyclin dependant kinase 2-cyclin E to that of cyclin-dependent kinase 5
# respond with the number and nothing more

[[record]]
mol = "CC(C)c1cnc(NC(=O)Oc2ccccc2)s1"
quantitativeresult = 0.6

[[record]]
mol = "O=C(Cc1cccc2cnccc12)Nc1ncc(C2CCC2)s1"
quantitativeresult = 5.4

[[record]]
mol = "CC(C)c1cnc(NC(=O)Cc2ccccc2)s1"
quantitativeresult = 1.5

[[record]]
mol = "O=C(Cc1ccccc1)Nc1ncc(-c2ccccc2)s1"
quantitativeresult = 1.3

[[record]]
mol = "O=C(Cc1c[nH]c2ccccc12)Nc1ncc(C2CCC2)s1"
quantitativeresult = 2.5


Kindly consider the entry below.
Indicate the recorded Ratio value for this compound: `Cc1nc2ccc(CC(=O)Nc3ncc(C4CCC4)s3)cc2s1`
1.3

---

Molecular target: Cyclin-dependent kinase 2/cyclin E1 (Homo sapiens)
Assay: Concentration required for inhibition of cyclin dependant kinase 2-cyclin E was measured by scintillation proximity assay
Type: protein-complex assay
Documented IC50 across a set of compounds
Give the value, in units of nM, as a plain number.

Indicate the recorded IC50 value for this compound: `O=C(Cc1ccc2ncccc2c1)Nc1ncc(C2CCC2)s1`
26

Indicate the recorded IC50 value for this compound: `O=C(Cc1ccccc1)Nc1ncc(C2=CCCC2)s1`
6510

Indicate the recorded IC50 value for this compound: `O=C(Cn1ccc2ccccc21)Nc1ncc(C2CCC2)s1`
100

Indicate the recorded IC50 value for this compound: `O=C(Cc1ccc2[nH]cnc2c1)Nc1ncc(C2CCC2)s1`
33

Indicate the recorded IC50 value for this compound: `O=C(Cc1ccccc1)Nc1ncc(Br)s1`
480

Indicate the recorded IC50 value for this compound: `O=C(Nc1ccc2cnccc2c1)Nc1ncc(C2CCC2)s1`
176

Indicate the recorded IC50 value for this compound: `Cc1cc2ncn(CC(=O)Nc3ncc(C4CCC4)s3)c2cc1C`
26

---

Target: Cyclin-dependent kinase 2/cyclin E1 (Homo sapiens)
Assay: Concentration required for 50% inhibition of cyclin dependant kinase 2-cyclin E was measured by scintillation proximity assay
Format: protein-complex assay
// boundary case: IC50 equal to 400 nM maps to class 0; strictly smaller maps to class 1

As a guide, the following entries are already answered.
[[record]]
mol = "CC(C)c1cnc(NC(=O)Nc2ccccc2)s1"
group = "class 1"

[[record]]
mol = "CC(C)c1cnc(NC(=O)c2ccccc2)s1"
group = "class 0"

[[record]]
mol = "CC(C)c1cnc(NC(=O)Cc2ccccc2)s1"
group = "class 1"


Consider the molecule `CC(C)c1cnc(NC(=O)Oc2ccccc2)s1` . Is its IC50 strictly less than 400 nM?
class 0

Consider the molecule `CC(C)c1cnc(NC(=O)C(=O)c2ccccc2)s1` . Is its IC50 strictly less than 400 nM?
class 0

---

Target: UniProt Q00535
Sequence (Q00535 whole entry): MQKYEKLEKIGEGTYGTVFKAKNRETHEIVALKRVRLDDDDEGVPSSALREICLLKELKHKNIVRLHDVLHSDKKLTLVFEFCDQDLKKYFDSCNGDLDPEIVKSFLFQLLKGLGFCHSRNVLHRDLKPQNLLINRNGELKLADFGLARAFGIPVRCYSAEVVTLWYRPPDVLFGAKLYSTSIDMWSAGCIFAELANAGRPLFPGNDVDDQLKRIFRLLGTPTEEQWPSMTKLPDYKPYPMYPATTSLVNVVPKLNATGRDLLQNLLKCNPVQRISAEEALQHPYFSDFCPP
pIC50: −log10 of the molar value.
Assign a class from recorded pIC50; defined classes: group 1: < 6; group 2: ≥ 6 and < 7; group 3: ≥ 7

As a guide, the following entries are already answered.
[[record]]
mol = "CN(C)c1cnc(NC(=O)Cc2ccccc2)s1"
studysystem = "UniProt Q00535"
group = "group 1"

[[record]]
mol = "O=C(Nc1ncc(C2CCC2)s1)Nc1cccc2nn[nH]c12"
studysystem = "UniProt Q00535"
group = "group 3"

[[record]]
mol = "Cc1nc2ccc(CC(=O)Nc3ncc(C4CCC4)s3)cc2s1"
studysystem = "UniProt Q00535"
group = "group 3"

[[record]]
mol = "CC(C)c1cnc(NC(=O)C(=O)c2ccccc2)s1"
studysystem = "UniProt Q00535"
group = "group 1"

[[record]]
mol = "O=C(Nc1ncc(C2CCC2)s1)Nc1cccc2c[nH]nc12"
studysystem = "UniProt Q00535"
group = "group 2"

[[record]]
mol = "O=C(Nc1ccccc1)Nc1ncc(C2CCC2)s1"
studysystem = "UniProt Q00535"
group = "group 2"

[[record]]
mol = "O=C(Cc1ccccc1)Nc1ncc(-c2ccccc2)s1"
studysystem = "UniProt Q00535"
group = "group 1"

[[record]]
mol = "CC(C)c1cnc(NC(=O)Oc2ccccc2)s1"
studysystem = "UniProt Q00535"
group = "group 1"


Here is the next item to consider.
Class? Entry: `CCCCCc1cnc(NC(=O)Cc2ccccc2)s1`
group 1

---

Target: Cyclin-dependent kinase 2/cyclin E1 (Homo sapiens)
Assay: Concentration required for inhibition of cyclin dependant kinase 2-cyclin E was measured by scintillation proximity assay
Assay type: protein-complex assay
Documented pIC50 across a set of compounds
Note: pIC50 values are expressed as the negative base-10 logarithm of concentration in M.

Sample answers from the record:
[[record]]
mol = "O=C(Cc1ccccc1)Nc1ncc(C2CCCCC2)s1"
studysystem = "Cyclin-dependent kinase 2/cyclin E1 (Homo sapiens)"
propertyname = "pIC50"
quantitativeresult = 6.00

[[record]]
mol = "CN(C)c1cnc(NC(=O)Cc2ccccc2)s1"
studysystem = "Cyclin-dependent kinase 2/cyclin E1 (Homo sapiens)"
propertyname = "pIC50"
quantitativeresult = 5.32

[[record]]
mol = "O=C(Cc1ccccc1)Nc1ncc(-c2ccccc2)s1"
studysystem = "Cyclin-dependent kinase 2/cyclin E1 (Homo sapiens)"
propertyname = "pIC50"
quantitativeresult = 5.70

[[record]]
mol = "O=C(Cc1ccccc1)Nc1ncc(C2CCCC2)s1"
studysystem = "Cyclin-dependent kinase 2/cyclin E1 (Homo sapiens)"
propertyname = "pIC50"
quantitativeresult = 6.81

[[record]]
mol = "CC(=O)c1cnc(NC(=O)Cc2ccccc2)s1"
studysystem = "Cyclin-dependent kinase 2/cyclin E1 (Homo sapiens)"
propertyname = "pIC50"
quantitativeresult = 5.34


Kindly consider the entry below.
Indicate the recorded pIC50 value for this compound: `O=C(Cc1ccccc1)Nc1ncc(C2CCC2)s1`
7.13

Numbers sourced from ChEMBL document CHEMBL1138018.
